Test system: NCI-H23
Assay: Growth inhibitory activity against human NCI-H23 lung tumor cell line
Assay type: functional
reported_property: GI50 (µg/mL)

| compound | value_modifier | readout_number |
| --- | --- | --- |
| CC(C)c1cc2c(cc1O)[C@@]1(CO)CCCC(C)(C)[C@@H]1CC2 | = | 2.8 |
| CC(C)c1cc2c(cc1O)[C@@]1(C)CCCC(C)(C)[C@@H]1CC2=O | < | 50 |
| CC(C)c1cc2c(cc1O)[C@@]1(C)CCCC(C)(C)[C@@H]1CC2 | < | 50 |
| CC(C)c1cc2c(cc1O)[C@@]1(C)CCC[C@@](C)(CO)[C@@H]1CC2 [18-HYDROXYFERRUGINOL] | < | 50 |
| CC(C)c1cc2c(cc1O)[C@@]1(C)CCCC(C)(C)[C@@H]1C(O)C2=O (stereo not given in full) | = | 2.21 |
